Measured T/C accompanies every entry in the list below.
test system: BDF1 mice, Adenocarcinoma 755 s.c., tumor weight T/C; assay: NCI In Vivo Anticancer Drug Screen. Data for tumor model Adenocarcinoma 755 (subcutaneous) in B6D2F1 (BDF1) mice; conditions: endpoint: mean tumor weight; dose: 250.0 mg/kg/injection; schedule: Q01DX011 (ip); vehicle: methylcellulose (MC); higher = larger tumour

Check out these entries, answers already filled in.
{"columns": ["compound", "target", "T/C"],
 "data": [
  ["CC(=O)OCC1CCCC(n2cnc3c(Cl)ncnc32)O1 (stereo not drawn)", "BDF1 mice, Adenocarcinoma 755 s.c., tumor weight T/C", "26 % of control"],
  ["Cc1ccc(Nc2nc(N)nc(C)c2Br)cc1", "BDF1 mice, Adenocarcinoma 755 s.c., tumor weight T/C", "83 % of control"]
]}

Continue with the compound presented below.
Enquiry: # query: T/C | item c1ccc2[nH]cnc2c1 | system: BDF1 mice, Adenocarcinoma 755 s.c., tumor weight T/C
Return: 118 % of control

* * *

system: BDF1 mice, Adenocarcinoma 755 s.c., tumor weight T/C; assay: NCI In Vivo Anticancer Drug Screen. Data for tumor model Adenocarcinoma 755 (subcutaneous) in B6D2F1 (BDF1) mice; conditions: endpoint: mean tumor weight; dose: 60.0 mg/kg/injection; schedule: Q01DX011 (ip); vehicle: carboxymethylcellulose (CMC); higher = larger tumour
Consider the following molecules and their measured T/C readings.

Worked cases, answers included:
{"columns": ["molecule", "target", "measured.parameter", "measured"],
 "data": [
  ["CC(=O)OC1C(CO)OC(n2cnc3c(=S)nc[nH]c32)C1OC(C)=O (stereo unspecified)", "BDF1 mice, Adenocarcinoma 755 s.c., tumor weight T/C", "T/C", "7 % of control"],
  ["O=C(OCC1OC(n2cnc3c(=O)[nH]c(=O)[nH]c32)C(OC(=O)c2ccccc2)C1OC(=O)c1ccccc1)c1ccccc1 (stereo unspecified)", "BDF1 mice, Adenocarcinoma 755 s.c., tumor weight T/C", "T/C", "78 % of control"],
  ["[N-]=[N+]=NC1(C(=O)O)CCCC1", "BDF1 mice, Adenocarcinoma 755 s.c., tumor weight T/C", "T/C", "120 % of control"],
  ["Cc1ccc(/C=N/Nc2nc3c([nH]2)c(=O)n(C)c(=O)n3C)cc1", "BDF1 mice, Adenocarcinoma 755 s.c., tumor weight T/C", "T/C", "115 % of control"],
  ["CCOC=Nc1c(N)ncnc1F", "BDF1 mice, Adenocarcinoma 755 s.c., tumor weight T/C", "T/C", "89 % of control"]
]}

Enquiry: Look up T/C for this molecule: Nc1[nH]cnc(=S)c1NC=O
Return: 63 % of control

Enquiry: Quick one: T/C for NS(=O)(=O)c1nc2nc[nH]c(=O)c2[nH]1 ?
Return: 163 % of control

Enquiry: Suppose we examine the molecule CC(=O)OCC1OC(n2cnc3c(Cl)nc(Cl)nc32)C(OC(C)=O)C1OC(C)=O (stereo unspecified) ; what T/C value has been reported?
Return: 92 % of control

Enquiry: Fill in: T/C of Cn1c(=O)c2c(nc(N/N=C/c3ccccc3C(=O)O)n2C)n(C)c1=O is ___
Return: 69 % of control

Enquiry: Name the recorded T/C for Nc1nc(Br)c2ncn(C3OC(CO)C(O)C3O)c2n1 (stereo unspecified) .
Return: 86 % of control

Enquiry: Which T/C is reported for this molecule? Cc1ccc(S(=O)(=O)OCC2OC(n3cnc4c(=O)[nH]c(N)nc43)C(O)C2O)cc1 (stereo unspecified)
Return: 100 % of control
